Test system: mtOXPHOS transcripts
Type: cell-based, mouse
setup-conditions: normalized composite Z-score vs mock-treated (DMSO) wells; Conc 20 μM
Recorded measurements of mitoOX, one per entry

compound: NCCC(=O)c1ccccc1N
mitoOX: 0.045

compound: COc1cc2c(cc1OC)[C@@H]1C(=O)c3ccc4oc(C(C)C)cc4c3O[C@@H]1CO2 [isorotenone, reference compound]
mitoOX: −4.571

compound: CC1=CC2C(C(C)C)CCC(C)(O)C2CC1 (stereo not drawn)
mitoOX: −1.252

compound: CC1C(=NO)CC2CC1C2(C)C (stereo not drawn)
mitoOX: 0.386

compound: COc1cc(C)c(C(=O)O)c(O)c1
mitoOX: 1.116

compound: COC(=O)CC[C@@H](C)[C@H]1CC[C@H]2[C@@H]3[C@H](O)C[C@@H]4C[C@H](O)CC[C@]4(C)[C@H]3C[C@H](O)[C@]12C
mitoOX: −0.394

compound: Oc1cc(O)c2c(c1)O[C@H](c1ccc(O)c(O)c1)[C@H](O)C2 [epicatechin, reference compound]
mitoOX: −0.631

compound: CC(=O)O[C@H]1C[C@@H](O)C(C)(C)[C@@H]2C[C@@H](OC(C)=O)[C@]3(C)[C@H](CC[C@@]4(C)[C@@H](c5ccoc5)OC(=O)[C@H]5O[C@@]534)[C@@]12C
mitoOX: −0.272

compound: COc1ccccc1-c1cc(=O)c2c(OC)cccc2o1
mitoOX: −0.607

compound: OC[C@H]1O[C@@H](O[C@H]2[C@H](O)[C@@H](O)[C@H](O)O[C@@H]2CO)[C@H](O)[C@@H](O)[C@@H]1O [cellobiose (D[+])]
mitoOX: −0.466

compound: CC1(C)CC2C1CC[C@]1(CBr)CCC3C(CC(=O)O)C(=O)O[C@@]32C1 (stereo partly drawn)
mitoOX: −1.624

compound: OC[C@H]1O[C@@](CO)(O[C@H]2O[C@H](CO)[C@@H](O)[C@H](O)[C@H]2O)[C@@H](O[C@H]2O[C@H](CO)[C@@H](O)[C@H](O)[C@H]2O)[C@@H]1O
mitoOX: −1.553

compound: C[C@]12CC[C@H]3[C@@H](CC[C@]4(O)C[C@@H](O)CC[C@]34C=O)[C@@]1(O)CC[C@@H]2C1=CC(=O)OC1
mitoOX: −1.094

compound: C=C1CC[C@@H]2[C@](C)(CO)[C@H](O)CC[C@@]2(C)[C@@H]1C/C=C1/C(=O)OC[C@H]1O [andrographolide]
mitoOX: −2.361

compound: O=C1C[C@@H](c2ccc(O)cc2)Oc2cc(O)ccc21
mitoOX: −1.069

====

# ΔΨm values compiled below
Tested on: mitochondrial membrane potential
Format: cell-based, mouse
setup-conditions: composite Z-score vs DMSO wells; Conc 20 μM

compound: C[C@]12C=CC(=O)C=C1CC[C@@H]1[C@@H]2C(=O)C[C@@]2(C)[C@H]1CC[C@]2(O)C(=O)CO
ΔΨm: 0.258

compound: CC(=O)N[C@H]1[C@H]([C@@H](O)[C@@H](O)CO)O[C@@](O)(C(=O)O)C[C@@H]1O
ΔΨm: 0.053

compound: CSCC[C@H](NC=O)C(=O)N[C@@H](CC(C)C)C(=O)N[C@@H](Cc1ccccc1)C(=O)O
ΔΨm: 0.476

compound: C=C1c2cccc(O)c2C(=O)C2=C(O)[C@]3(O)C(=O)C(C(N)=O)=C(O)[C@@H](N(C)C)[C@@H]3[C@@H](O)[C@H]12 [methacycline, reference compound]
ΔΨm: −1.616

compound: CCCOc1ccccc1-c1nc2nn[nH]c2c(=O)[nH]1
ΔΨm: −0.347

compound: CC1=C2C(=CO[C@H](C)[C@H]2C)C(O)=C(C(=O)O)C1=O
ΔΨm: −0.590

compound: Oc1c(Cl)cc(Cl)c2cccnc12
ΔΨm: 1.120

compound: C[C@@H]1CC[C@H]2[C@@H](C)C(=O)O[C@@H]3O[C@@]4(C)CC[C@@H]1[C@]32OO4
ΔΨm: −0.832

compound: CCOc1ccc(NC(C)=O)cc1
ΔΨm: −0.255

compound: O=c1[nH]c(=O)n([C@H]2C[C@H](O)[C@@H](CO)O2)cc1F
ΔΨm: −1.275

compound: CC(=O)Nc1ccc(OC(=O)c2ccccc2O)cc1
ΔΨm: −0.707

compound: CCCCNc1ccc(C(=O)OCCN(C)C)cc1
ΔΨm: −0.492

compound: NCCCC(=O)O
ΔΨm: 0.550

compound: CC(C)NCC(O)c1cc(O)cc(O)c1 (stereo not shown)
ΔΨm: −1.005

compound: C#CC1(O)CC[C@H]2[C@@H]3CCC4=CC(=O)CC[C@@H]4[C@H]3CC[C@@]21CC (mixture of isomers)
ΔΨm: −0.965

compound: CCc1nc(N)nc(N)c1-c1ccc(Cl)cc1
ΔΨm: −0.696

compound: CC(=O)O[C@H](CC(=O)[O-])C[N+](C)(C)C
ΔΨm: −0.930

compound: CO[C@H]1[C@H](O)[C@H](O[C@H]2CC[C@@]3(C=O)[C@H](CC[C@@H]4[C@@H]3CC[C@]3(C)[C@@H](C5=CC(=O)OC5)CC[C@]43O)C2)O[C@@H](C)[C@@H]1O [peruvoside]
ΔΨm: −0.906

compound: [H]/N=C(/N)NS(=O)(=O)c1ccc(N)cc1
ΔΨm: 0.217

====

Test system: nuOXPHOS transcripts
Format: cell-based, mouse
setup-conditions: composite Z-score vs DMSO; Conc 20 μM
property-label: nucOX

compound: Cc1ccc(/N=C/N(C)/C=N/c2ccc(C)cc2C)c(C)c1
property-label: nucOX
value: −0.299
//
compound: CC1(C)O[C@H]2CC(=O)OC[C@]23[C@H]2CC[C@@]4(C)[C@H](c5ccoc5)OC(=O)[C@H]5O[C@]54[C@]2(C)C(=O)C[C@@H]13
property-label: nucOX
value: −0.317
//
compound: CC(COc1ccccc1)NC(C)C(O)c1ccc(O)cc1 (centres unmarked)
property-label: nucOX
value: −0.267
//
compound: Nc1nc2c(ncn2[C@H]2C[C@H](O)[C@@H](CO)O2)c(=O)[nH]1
property-label: nucOX
value: −0.090
//
compound: CC(C)=CCc1c(O)cc2occ(-c3ccc4c(c3)OCO4)c(=O)c2c1O
property-label: nucOX
value: −0.626
//
compound: C[C@]12CCC(=O)C=C1CC[C@@H]1[C@@H]2C(=O)C[C@@]2(C)[C@H]1CC[C@]2(O)C(=O)CO
property-label: nucOX
value: −0.165
//
compound: C=C1C(=O)O[C@@H]2C[C@@]3(C)CCC[C@H](C)C3=C[C@H]12
property-label: nucOX
value: −2.240
//
compound: CC(C)=CCC/C(C)=C/CC/C(C)=C/CO
property-label: nucOX
value: 0.106

====

// reported mitoOX per item
Tested on: mtOXPHOS transcripts
Format: cell-based, mouse
property-label: mitoOX

compound: CN1CCCN=C1/C=C/c1cccs1 [pyrantel pamoate]
property-label: mitoOX
value: −0.327
//
compound: C=C1C[C@]23C[C@@]1(O)CC[C@H]2[C@@]12C=C[C@H](O)[C@@](C)(C(=O)O1)[C@H]2[C@@H]3C(=O)O
property-label: mitoOX
value: −0.090
//
compound: C1COC(NC(C2CC2)C2CC2)=N1
property-label: mitoOX
value: −0.313
//
compound: CN[C@H]1CC[C@@H](c2ccc(Cl)c(Cl)c2)c2ccccc21
property-label: mitoOX
value: 0.020
//
compound: COC(=O)[C@@H]1[C@H]2C[C@H]3c4[nH]c5ccccc5c4CCN3C[C@@H]2CC[C@@H]1O
property-label: mitoOX
value: −0.471
//
compound: COP(=S)(OC)Oc1ccc([N+](=O)[O-])cc1
property-label: mitoOX
value: 0.450
//
compound: O=C(CCBr)N1CCN(C(=O)CCBr)CC1
property-label: mitoOX
value: −1.219
//
compound: CC(=O)Nc1ccc(O)cc1
property-label: mitoOX
value: 0.317
//
compound: Cc1cc(C(C)(C)CC(C)(C)C)ccc1OCCOCC[N+](C)(C)Cc1ccccc1
property-label: mitoOX
value: −1.043
//
compound: NCCCCN
property-label: mitoOX
value: −0.684

====

Tested on: cytochrome c
Type: cell-based, mouse
setup-conditions: composite Z-score vs mock-treated (DMSO) wells; concentration of each compound in μM

compound: O=CC=Cc1ccc(O)cc1 [p-hydroxycinnamaldehyde]
target: cytochrome c
cyt c: −0.079
--
compound: COc1c(O)cc2c(c1O)[C@@H]1O[C@H](CO)[C@@H](O)[C@H](O)[C@H]1OC2=O
target: cytochrome c
cyt c: 0.831
--
compound: CC[C@H]1OC(=O)C[C@@H](O)[C@H](C)[C@@H](O[C@@H]2O[C@H](C)[C@@H](O[C@H]3C[C@@](C)(O)[C@@H](O)[C@H](C)O3)[C@H](N(C)C)[C@H]2O)[C@@H](CC=O)C[C@@H](C)C(=O)/C=C/C(C)=C/[C@@H]1CO[C@@H]1O[C@H](C)[C@@H](O)[C@@H](OC)[C@H]1OC
target: cytochrome c
cyt c: −0.007
--
compound: Cc1cccc(C)c1NC(=O)C1CCCCN1C (stereo not drawn) [mepivacaine]
target: cytochrome c
cyt c: −0.084
--
compound: CC(C)c1c(O)ccc2c1CCC1C(C)(C(=O)O)CCCC21C (stereo not drawn)
target: cytochrome c
cyt c: −1.116
--
compound: CN[C@H]1C[C@@H](N)[C@H](O)[C@@H](O[C@@H]2O[C@H](CO)[C@H](O)[C@@H]3OC4(O[C@H]23)O[C@H]([C@@H](N)CO)[C@H](O)[C@H](O)[C@H]4O)[C@@H]1O (stereo partly drawn)
target: cytochrome c
cyt c: −0.478
